Reference for the values: PubChem BioAssay (Tox21)

target: Cytochrome P450 1A2 (Homo sapiens) (UniProt P05177); assay: Cytochrome P450 Family 1 Subfamily A Member 2 (CYP1A2) small molecule antagonists: luciferase reporter qHTS assay (AID 1671199); settings: P450-Glo CYP1A2 enzyme, luciferin luminescence, 1 h; series mostly up to 53 µM; further: nearly all actives have a fitted effect of over 50% in size
Sequence (P05177 whole entry, looked up): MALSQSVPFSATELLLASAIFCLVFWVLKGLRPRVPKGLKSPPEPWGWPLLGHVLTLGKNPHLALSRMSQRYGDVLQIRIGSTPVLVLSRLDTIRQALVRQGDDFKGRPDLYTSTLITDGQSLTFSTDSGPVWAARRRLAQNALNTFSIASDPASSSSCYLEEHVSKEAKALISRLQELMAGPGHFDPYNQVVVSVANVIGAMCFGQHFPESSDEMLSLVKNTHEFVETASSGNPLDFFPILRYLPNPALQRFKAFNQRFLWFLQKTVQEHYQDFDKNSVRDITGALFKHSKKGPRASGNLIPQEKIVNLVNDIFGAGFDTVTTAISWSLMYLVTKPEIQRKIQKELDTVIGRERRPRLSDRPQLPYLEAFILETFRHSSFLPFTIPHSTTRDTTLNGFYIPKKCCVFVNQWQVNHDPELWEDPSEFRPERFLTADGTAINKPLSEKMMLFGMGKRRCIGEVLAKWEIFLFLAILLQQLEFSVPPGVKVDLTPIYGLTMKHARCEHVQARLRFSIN
Inconclusive results are not listed. Activity calls are given as the source filed them. The call rests on the fitted dose curve; in most records, active means well fitted inhibition curve with a large enough effect in the repeat runs; inconclusive means weak or mixed curves; inactive means no such curve, though single readings can be large or run the other way.
Outcome field: choose from T for active, F for inactive

Consider the worked cases shown below.
O=C(O)c1ccc(OCCCOc2ccc(C(=O)O)cc2)cc1    F
Clc1cc(Cl)nc(Cl)n1    T

[in] Which result was noted for this compound in the test: Cc1cc2c(OCC(CNC(C)(C)C)OC(=O)c3ccccc3)cccc2[nH]1 (stereo not drawn)
[out] F

* * *

Assay: qHTS assay to identify small molecule agonists of the constitutive androstane receptor (CAR) signaling pathway - cell viability counter screen (AID 1224836); further: nearly all actives have a fitted effect of over 45% in size
Settings: HepG2-CYP2B6-hCAR viability, CellTiter-Fluor, 23 h, PK11195 added to every well; series mostly up to 92.4 µM
Source text: U.S. Tox21 Program National Center for Advancing Translational Sciences [NCATS] NIH Chemical Genomics Center [NCGC] U.S. Environmental Protection Agency [EPA] National Institutes of Environmental Health Sciences [NIEHS] National Toxicology Program [NTP] U.S. Food and Drug Administration [FDA] […] Tox21 Assay Protocol Summary: A double-stable (hCAR and CYP2B6-2.2kb) transfected cell line, derived from human hepatoma (HepG2) cells, was utilized for the duration of the quantitative high-throughput screens. […]
Results filed as inconclusive are left out. Active and inactive are the calls of the source. The call rests on the fitted dose curve; in most records, active means well fitted cell-killing curve with a large enough effect in the repeat runs; inconclusive means weak or mixed curves, or effect the other way; inactive means flat fitted curve, though single readings scatter.
Outcome field: choose from 1 = active, 0 = inactive

Consider the worked cases shown below.
CCOc1ccccc1O[C@H](c1ccccc1)[C@H]1CNCCO1    0
CC(=O)OCCN(CCOC(C)=O)c1ccc(N=Nc2ccc([N+](=O)[O-])cc2C#N)cc1    0
CCCCCCCCCI    0
Cc1ccc(C(C)(C)O)cc1    0
CCOc1cccc(-n2cc(C(=O)N3CCN(c4cc(C(=O)O)c5ccccc5c4)CC3)nc2-c2ccc(C)cc2)c1    0

[in] Which result was noted for this compound in the test: CC1=Nc2ccc3ccccc3c2C1(C)C
[out] 0

[in] Which result was noted for this compound in the test: CCC(C)(C)OC
[out] 0

[in] Which result was noted for this compound in the test: CC1=C(Br)C(=O)C(Br)=C/C1=C(/c1ccccc1S(=O)(=O)O)c1cc(Br)c(O)c(Br)c1C
[out] 1

[in] Which result was noted for this compound in the test: CCCC(C(=O)OCCN(CC)CC)(c1ccccc1)c1ccccc1
[out] 0

[in] Which result was noted for this compound in the test: CCC1CO1 (configuration not stated)
[out] 0

[in] Which result was noted for this compound in the test: CCOC(=O)c1ccc(C#Cc2ccc3c(c2)C(C)(C)CCS3)nc1
[out] 0

[in] Which result was noted for this compound in the test: CCC(=O)OC
[out] 0

* * *

assay: qHTS assay to identify small molecule antagonists of the androgen receptor (AR) signaling pathway using the MDA cell line - cell viability counter screen (AID 743041; further: nearly all actives have a fitted effect of over 45% in size); details: MDA-kb2 viability, CellTiter-Fluor, 16 h, cells co-treated with R1881 androgen agonist; series mostly up to 70.3 µM
Results filed as inconclusive are left out. Calls of active or inactive are those of the source. The call rests on the fitted dose curve; in most records, active means well fitted cell-killing curve with a large enough effect in the repeat runs; inconclusive means weak or mixed curves, or effect the other way; inactive means flat fitted curve, though single readings scatter.
Outcome field: choose from active, inactive

Consider the worked cases shown below.
NC(=O)c1ccncc1    inactive
COC(=O)CCS    inactive
O=C(/C=C/c1ccccc1)OCCc1ccccc1    inactive
CCCCCCNC(=O)n1cc(F)c(=O)[nH]c1=O    inactive
O=C(O)CCC(=O)C(=O)O    inactive

[in] Which result was noted for this compound in the test: CCC(C)COC(=O)CC(C)C (stereo not drawn)
[out] inactive

[in] Which result was noted for this compound in the test: COc1cc(C(=O)NCCCCCC(=O)O)cc(OC)c1OC
[out] inactive

[in] Which result was noted for this compound in the test: OCCOCC#CCOCCO
[out] inactive

[in] Which result was noted for this compound in the test: CCCCCCC(C)(C)C(=O)O
[out] inactive

[in] Which result was noted for this compound in the test: CN1CCCC(CC2c3ccccc3Sc3ccccc32)C1 (stereo not drawn)
[out] inactive

[in] Which result was noted for this compound in the test: C=CC(C)(CCC=C(C)C)OC(=O)CC(C)C (stereo not drawn)
[out] inactive

[in] Which result was noted for this compound in the test: O=c1c(O)c(-c2ccc(O)cc2)oc2cc(O)cc(O)c12
[out] inactive

[in] Which result was noted for this compound in the test: O=C(Cn1ccnc1[N+](=O)[O-])NCCO
[out] inactive

[in] Which result was noted for this compound in the test: Cc1ccc(C(C)(C)O)cc1
[out] inactive

[in] Which result was noted for this compound in the test: OC(CCN1CCCC1)(c1ccccc1)C1CCCCC1 (stereo not drawn)
[out] inactive

[in] Which result was noted for this compound in the test: CC(C)=CCC/C(C)=C/CC/C(C)=C/CCC(=O)OC/C=C(\C)CCC=C(C)C
[out] inactive

[in] Which result was noted for this compound in the test: CCC1NC(=O)c2cc(S(N)(=O)=O)c(Cl)cc2N1 (stereo not drawn)
[out] inactive

[in] Which result was noted for this compound in the test: C[C@]12CC[C@@H]3c4ccc(O)cc4CC[C@H]3[C@@H]1CC[C@@H]2OC(=O)CCC1CCCC1
[out] inactive

[in] Which result was noted for this compound in the test: COc1cc(Nc2c(C#N)cnc3cc(OCCCN4CCN(C)CC4)c(OC)cc23)c(Cl)cc1Cl
[out] active

* * *

biological target: Peroxisome proliferator-activated receptor gamma (Homo sapiens) (UniProt P37231); assay: qHTS assay to identify small molecule agonists of the peroxisome proliferator-activated receptor gamma (PPARg) signaling pathway (AID 743094); settings: HEK293H PPARg-UAS-bla, beta-lactamase FRET ratio, 17 h; series mostly up to 57 µM; further: on the % scale 0 is the no-effect control and ±100 the full control effect
Sequence (P37231 whole entry, looked up): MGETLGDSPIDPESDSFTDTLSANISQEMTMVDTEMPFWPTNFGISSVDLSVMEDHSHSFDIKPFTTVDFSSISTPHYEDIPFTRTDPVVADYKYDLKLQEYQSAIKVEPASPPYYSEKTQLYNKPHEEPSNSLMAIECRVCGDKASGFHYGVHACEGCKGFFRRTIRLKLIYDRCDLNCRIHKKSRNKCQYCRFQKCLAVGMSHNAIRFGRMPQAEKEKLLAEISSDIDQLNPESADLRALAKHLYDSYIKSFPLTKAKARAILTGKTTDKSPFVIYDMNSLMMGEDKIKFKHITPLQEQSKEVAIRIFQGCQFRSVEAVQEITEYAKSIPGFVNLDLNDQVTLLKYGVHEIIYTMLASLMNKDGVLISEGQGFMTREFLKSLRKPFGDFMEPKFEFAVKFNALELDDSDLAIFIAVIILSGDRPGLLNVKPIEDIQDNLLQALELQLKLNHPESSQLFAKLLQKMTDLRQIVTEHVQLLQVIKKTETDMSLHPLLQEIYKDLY
Records with an inconclusive call do not appear. Calls of active or inactive are those of the source. Calls follow the shape of the dose curve; as a rule, active = well fitted activation curve with a large enough effect in the signal ratio in the repeat runs (not every such curve was filed as active); inconclusive = weak or mixed curves, or effect the other way; inactive = no such curve, though single readings can be large or run the other way; the % refers to the signal ratio.
reported_metric: outcome

CCCCOc1ccc(OCCCN2CCOCC2)cc1    inactive
C=CC(=O)[O-].C=CC(=O)[O-].[Zn+2]    inactive
N#[N+]c1ccc2c(S(=O)(=O)[O-])cccc2c1O    inactive
COc1cc(C(=O)NC2CCN(C)CC2)ccc1Nc1ncc2c(n1)N(C1CCCC1)CC(F)(F)C(=O)N2C    inactive
Nc1nnc(-c2ccc([N+](=O)[O-])o2)o1    inactive

[in] Give the observed outcome of CC(C)=CCC/C(C)=C/CC/C(C)=C/CCC(=O)OC/C=C(\C)CCC=C(C)C for Peroxisome proliferator-activated receptor gamma (Homo sapiens) (UniProt P37231).
[out] inactive

* * *

molecular target: Peroxisome proliferator-activated receptor gamma (Homo sapiens); experiment: qHTS assay to identify small molecule antagonists of the peroxisome proliferator-activated receptor gamma (PPARg) signaling pathway (AID 743191); details: HEK293H PPARg-UAS-bla, beta-lactamase ratio, antagonist, 17 h; series mostly up to 62.6 µM; further: nearly all actives have a fitted effect of over 30% in size
Inconclusive results are not listed. Active and inactive are the calls of the source. Calls follow the shape of the full dose curve.
Outcome field: choose from TRUE = active, FALSE = inactive

Consider the worked cases shown below.
CN1CCCN=C1COC(=O)C(O)(c1ccccc1)C1CCCCC1 (stereo not drawn)    FALSE
Cc1ccc(CO)cc1    FALSE
COC(=O)[C@H]1[C@H]2C[C@@H]3c4[nH]c5cc(OC)ccc5c4CCN3C[C@H]2C[C@@H](OC(=O)/C=C/c2ccc(O)c(OC)c2)[C@@H]1OC    TRUE
C=C(C)[C@@H]1CCC2=CCC[C@@H](C)[C@]2(C)C1    FALSE
CC1=Nc2ccc3ccccc3c2C1(C)C    FALSE

[in] Which result was noted for this molecule in the test: CCOC(=O)c1ccc(OCCN2C[C@H](O)[C@@H](O)[C@H](O)[C@H]2CO)cc1
[out] FALSE

[in] Which result was noted for this molecule in the test: CCc1ccccc1
[out] FALSE

* * *

assay: qHTS assay to test for compound auto fluorescence at 590 nm (red) in HEK293 cells (AID 720679); conditions: red autofluorescence 540/590 nm; series mostly up to 91.3 µM; further: on the % scale 0 is the no-effect control and ±100 the full control effect
The source made the active and inactive calls. Calls come from the whole dose curve; as a rule, active = well fitted curve in the direction sought with a large enough effect in the repeat runs; inconclusive = weak or mixed curves; inactive = flat fitted curve, though single readings scatter.
reported_metric: fluorescence, % of fluorescent control

Worked examples, 6 molecules total:
CN1CCCC(CC2c3ccccc3Sc3ccccc32)C1 (configuration not stated)    -0.0119% [at 18.6 µM] (inactive)
CC(=O)c1ccc([N+](=O)[O-])cc1    inactive
CN1CCCC(n2nc(Cc3ccc(Cl)cc3)c3ccccc3c2=O)CC1 (configuration not stated)    inactive
CC1=C(CC=O)C(C)(C)CCC1    inactive
COC(=O)C1=C(C)NC(C)=C(C(=O)O[C@@H]2CCCN(Cc3ccccc3)C2)[C@@H]1c1cccc([N+](=O)[O-])c1    inactive
Cc1ccccc1S    inactive

As a next step, examine the molecule that follows.
[in] Fill in reported fluorescence, % of fluorescent control for this entry: CCCCCCCCCI
[out] inactive
